Test system: c-Src
Assay protocol: phosphorylation enrichment, bacterial display (enrichment ratio); higher = better substrate or ligand; peptides without Tyr show the background
Outcome measure: phosphorylation enrichment
One number for each entry.

{"Query sequence": "PPSGEYFGHCG [TRIP6_Y275_Q278H]", "System": "c-Src", "Outcome measure": "phosphorylation enrichment", "Recorded measurement": 0.509}
{"Query sequence": "LAETSYVTVLE [MAGEA1_Y276_K278T]", "System": "c-Src", "Outcome measure": "phosphorylation enrichment", "Recorded measurement": 0.496}
{"Query sequence": "TEALYYTDDTA [ADPRS_Y75]", "System": "c-Src", "Outcome measure": "phosphorylation enrichment", "Recorded measurement": 1.9}
{"Query sequence": "YCRHNYGAVES [HLA-DRB1_Y112_V114A]", "System": "c-Src", "Outcome measure": "phosphorylation enrichment", "Recorded measurement": 0.503}
{"Query sequence": "MIRSAYALRGL [CPS1_Y590_G593R]", "System": "c-Src", "Outcome measure": "phosphorylation enrichment", "Recorded measurement": 0.474}
{"Query sequence": "NGPDVYVLPVT [AATK_Y93_L97V]", "System": "c-Src", "Outcome measure": "phosphorylation enrichment", "Recorded measurement": 1.2}

Hi, could you look up phosphorylation enrichment for each item in my list?
1. ANVKWYRNGRE
2. HQKKPYCHTHN [NRAP_Y53_A56T]
3. PSAVAYPKRSQ [MARK3_Y432_V429A]
4. LNPFIYSLRNC [OR1A2_Y288_W293C]

1. 0.485
2. 0.794
3. 0.696
4. 6.28

Hi, could you look up phosphorylation enrichment for each item in my list?
1. AKLKDYFIFNK [CCDC42_Y149_YF]
2. KPGVNYFFRVS
3. EDASEYFENYI [PARP4_Y214]
4. DDSNLYINVKL [MTHFD1_Y52]
5. KIRDWYQRQRP [KRT14_Y151]
6. GPGLVYRVANK [FLNB_Y1833_G1834R]
7. CTTIHYNYMCH [TP53_Y234_N239H]
8. QEALEYFMKQV [PIK3CA_Y1038_M1043V]

0.658
0.374
0.539
0.442
0.502
0.541
0.506
0.463

---

System: Jak2 (UniProt O60674)
Sequence (O60674 whole entry, looked up): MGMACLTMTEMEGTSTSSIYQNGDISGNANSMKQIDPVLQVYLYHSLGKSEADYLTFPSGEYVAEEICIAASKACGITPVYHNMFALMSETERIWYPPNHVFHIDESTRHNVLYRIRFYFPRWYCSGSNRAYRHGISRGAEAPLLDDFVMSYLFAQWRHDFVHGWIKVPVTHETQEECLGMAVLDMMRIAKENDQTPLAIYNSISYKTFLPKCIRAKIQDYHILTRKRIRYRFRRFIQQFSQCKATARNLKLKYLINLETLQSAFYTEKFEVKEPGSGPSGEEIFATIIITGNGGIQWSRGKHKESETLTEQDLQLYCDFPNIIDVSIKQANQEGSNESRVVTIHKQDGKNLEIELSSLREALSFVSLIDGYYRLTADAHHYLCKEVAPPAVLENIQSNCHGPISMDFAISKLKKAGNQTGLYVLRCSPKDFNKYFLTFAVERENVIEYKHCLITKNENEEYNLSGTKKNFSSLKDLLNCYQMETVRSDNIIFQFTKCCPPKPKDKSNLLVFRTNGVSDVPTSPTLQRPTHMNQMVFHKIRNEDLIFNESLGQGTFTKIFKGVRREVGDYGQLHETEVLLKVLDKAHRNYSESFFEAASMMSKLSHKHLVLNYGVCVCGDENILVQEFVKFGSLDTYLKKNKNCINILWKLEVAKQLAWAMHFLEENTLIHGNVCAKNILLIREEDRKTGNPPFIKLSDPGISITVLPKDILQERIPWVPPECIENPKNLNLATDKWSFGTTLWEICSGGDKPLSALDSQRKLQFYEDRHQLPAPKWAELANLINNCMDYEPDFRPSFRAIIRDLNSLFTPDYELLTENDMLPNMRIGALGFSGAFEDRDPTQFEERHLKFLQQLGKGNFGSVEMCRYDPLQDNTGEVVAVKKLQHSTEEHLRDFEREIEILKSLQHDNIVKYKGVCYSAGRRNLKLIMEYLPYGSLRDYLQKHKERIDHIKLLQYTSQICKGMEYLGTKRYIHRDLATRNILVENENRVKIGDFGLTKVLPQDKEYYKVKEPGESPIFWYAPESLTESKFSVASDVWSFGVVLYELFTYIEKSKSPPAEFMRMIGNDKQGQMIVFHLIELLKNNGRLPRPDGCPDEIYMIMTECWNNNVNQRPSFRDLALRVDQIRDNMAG
Assay protocol: phosphorylation enrichment, bacterial display (enrichment ratio); higher = better substrate or ligand; peptides without Tyr show the background
Outcome measure: phosphorylation enrichment

Known results for sequences:
{"Query sequence": "DTKPAYQNLRQ [BOD1_Y82]", "phosphorylation enrichment": 0.524}
{"Query sequence": "GETEQYVGGGG [FAT4_Y4980_A4977T]", "phosphorylation enrichment": 0.66}
{"Query sequence": "MPVDGYISGLL [PAK6_Y81]", "phosphorylation enrichment": 0.817}

Hi, could you look up phosphorylation enrichment for each item in my list?
1. KLSCSYSHWSA [C4BPA_Y470]
2. YLTSSYINIST [IL23R_Y178]
3. KAPPTYDTVLQ [CYP3A4_Y347]
4. REVPVYTFSEP [FAM120B_Y368_D370Y_YF]
5. DDKQPYEKKAA [HMGB1_Y144]

[0.894, 1.81, 0.576, 1.1, 0.851]

Hi, could you look up phosphorylation enrichment for each item in my list?
1. PDKRIYQFTAS [SKAP2_Y197_A202S]
2. KDGNGYISAAE [CALM1_Y100]

1. 0.637
2. 0.685

Hi, could you look up phosphorylation enrichment for each item in my list?
1. TSKLSYLDPRI [TOP1_Y723_N722S]
2. AGHEEYSAMRD [KRAS_Y64_Q61H]
3. SQGRQYQELPR [KCNH2_Y1009_R1005Q]
4. RRAKGYPIDLY [ITGB2_Y125]
5. YLGEEYVKAVG [TF_Y674]

[0.939, 0.854, 0.517, 1.34, 0.698]

Hi, could you look up phosphorylation enrichment for each item in my list?
1. RRIHSYRGHLW [VHL_Y112]
2. WFPANYVKLLS [ITSN1_Y1132]
3. KLQQWYREPRS [GPI_Y17_H20P]
4. SGVSYYINLCQ [IGF2R_Y2025_N2020S]
5. SILAVYSKDIY [PANK2_Y400_N404I]
6. QSMEPYTKQQL [STAT3_Y640_V637M]
7. IRNRDYDDIDD [TTYH2_Y424_T419I]

1: 4.65; 2: 1.51; 3: 0.562; 4: 1.32; 5: 1.04; 6: 0.736; 7: 0.676

---

Please respond with reported SH2 binding enrichment for every item in the list.
System: Grb2 SH2 (UniProt P62993)
Sequence (P62993 whole entry, looked up): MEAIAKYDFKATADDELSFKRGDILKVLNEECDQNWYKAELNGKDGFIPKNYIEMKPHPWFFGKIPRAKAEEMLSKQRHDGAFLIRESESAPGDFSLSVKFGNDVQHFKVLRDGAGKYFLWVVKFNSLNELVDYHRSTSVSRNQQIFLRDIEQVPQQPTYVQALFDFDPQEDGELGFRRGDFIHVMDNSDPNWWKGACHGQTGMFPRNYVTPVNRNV
Assay protocol: SH2 binding enrichment of the phosphorylated peptide, bacterial display (enrichment ratio); higher = better substrate or ligand; peptides without Tyr show the background
Numbers only.

Known results for sequences:
{"Query sequence": "AGADGYGFLAP [FOXL2_Y186_YF]", "System": "Grb2 SH2 (UniProt P62993)", "SH2 binding enrichment": 0.832}
{"Query sequence": "REVPVYTFSEP [FAM120B_Y368_D370Y_YF]", "System": "Grb2 SH2 (UniProt P62993)", "SH2 binding enrichment": 1.16}
{"Query sequence": "FTHSDYQFGQR [PKP2_Y166_S169G_YF]", "System": "Grb2 SH2 (UniProt P62993)", "SH2 binding enrichment": 1}
{"Query sequence": "CTTIHYNYMCH [TP53_Y234_N239H]", "System": "Grb2 SH2 (UniProt P62993)", "SH2 binding enrichment": 1.26}
{"Query sequence": "CDKEFYSVHNK [MET_Y1235_Y1230C_YF]", "System": "Grb2 SH2 (UniProt P62993)", "SH2 binding enrichment": 1}

Hi, could you look up SH2 binding enrichment for each item in my list?
1. GSERDYTFEEL [EIF2S2_Y174_YF]
2. QCTSDYPEHVC [SART3_Y541]
3. LRAGVYHEKDQ [DNM2_Y626_P627H]
4. GLETSYIEDNC [PAH_Y24_Q20L]
5. RYFTTYDTNGR [CLCA1_Y665]

0.897
0.939
0.92
0.726
0.777

Hi, could you look up SH2 binding enrichment for each item in my list?
1. DLLNSYTENEG [HSPA4L_Y600_I601T]
2. SDQRRYSLIDP [CLIP2_Y972_R977P]
3. TESALYGCTIL [MAP3K21_Y724_V728I]
4. RGFRQDAFDGK [HLA-A_Y140_YF]

1. 0.7
2. 0.889
3. 1
4. 0.711

Hi, could you look up SH2 binding enrichment for each item in my list?
1. INVTIYGKTFR [EFHC1_Y177_I174V]
2. REAMEYLESKQ [BTK_Y511_C506R]

0.76
0.706

Hi, could you look up SH2 binding enrichment for each item in my list?
1. AAGGRYDGLVG [HARS1_Y363]
2. HLPAGYIIPLQ [GAA_Y822_R819P]

0.806
0.895

---

Tested on: AncSZ
Assay protocol: phosphorylation enrichment, bacterial display (enrichment ratio); higher = better substrate or ligand; peptides without Tyr show the background
Outcome measure: phosphorylation enrichment

{"Query sequence": "DDKQPYEKKAA [HMGB1_Y144]", "Outcome measure": "phosphorylation enrichment", "Recorded measurement": 0.988}
{"Query sequence": "HRNNNYEPNLF [BRCA2_Y57_K53R]", "Outcome measure": "phosphorylation enrichment", "Recorded measurement": 0.684}

Could you tell me which phosphorylation enrichment is on file for CEHRGCLFLAI [TEK_Y897_Y897C_YF] ?
1.02

---

System: Hck (UniProt P08631)
Sequence (P08631 whole entry, looked up): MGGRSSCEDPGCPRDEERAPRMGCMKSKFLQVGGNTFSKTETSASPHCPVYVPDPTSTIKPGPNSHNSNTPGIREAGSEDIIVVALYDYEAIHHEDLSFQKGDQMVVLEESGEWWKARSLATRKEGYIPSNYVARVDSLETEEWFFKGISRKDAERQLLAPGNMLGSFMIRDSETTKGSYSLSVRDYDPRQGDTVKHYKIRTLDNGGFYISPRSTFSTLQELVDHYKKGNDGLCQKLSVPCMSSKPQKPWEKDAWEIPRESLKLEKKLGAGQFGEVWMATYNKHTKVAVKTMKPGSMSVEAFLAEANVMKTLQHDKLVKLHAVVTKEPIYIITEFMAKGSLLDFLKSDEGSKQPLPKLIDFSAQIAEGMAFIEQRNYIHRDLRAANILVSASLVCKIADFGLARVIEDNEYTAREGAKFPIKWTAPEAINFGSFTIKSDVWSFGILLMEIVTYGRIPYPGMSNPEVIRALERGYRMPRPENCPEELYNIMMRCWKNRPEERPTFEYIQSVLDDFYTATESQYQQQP
Assay protocol: phosphorylation enrichment, bacterial display (enrichment ratio); higher = better substrate or ligand; peptides without Tyr show the background
Outcome measure: phosphorylation enrichment
Give bare numbers.

{"Query sequence": "KTGNIYRTEYG [MRPL3_Y265_M261T]", "Recorded measurement": 0.496}
{"Query sequence": "EFQKKYSDADI [CKAP5_Y1860_K1857Q_YF]", "Recorded measurement": 0.487}
{"Query sequence": "GTYVIYVRFSG [FLNB_Y1687_G1691S]", "Recorded measurement": 0.514}
{"Query sequence": "KIEGIYARDET [RPL35A_Y34_V33I]", "Recorded measurement": 1.12}
{"Query sequence": "ETGEPYRLSPE [EIF4G1_Y311]", "Recorded measurement": 0.631}
{"Query sequence": "TSNQEYLFLSM [FGFR1_Y766_D768Y_YF]", "Recorded measurement": 0.572}

Hi, could you look up phosphorylation enrichment for each item in my list?
1. AGTIPYHAHLD [ASS1_Y291_L290P]
2. NFFEFYVDDPL [GCHFR_Y48_P53L_YF]
3. EESREYDRLFE [PIK3R1_Y463_K459E_YF]

0.484
0.439
0.657
